- test_settings: 293.15 K; 101.33 kPa; Liquid; Vibrating tube method
measured_quantity: mass density (kg/m3)
Note: unit kg/m3 is implicit; provide only the numeric part.

compound	mass density / kg/m3
CCCCn1cc[n+](C)c1C.F[B-](F)(F)F [1-butyl-2,3-dimethylimidazolium tetrafluoroborate]	1196.72

I have this compound here, OCCO [1,2-ethanediol] , and I need its recorded mass density.
1113.35

Moving on to CCCCCn1cc[n+](C)c1.[Br-] [1-pentyl-3-methylimidazolium bromide]
1260.52

Moving on to CCCCCn1cc[n+](C)c1.F[B-](F)(F)F [1-methyl-3-pentyl-imidazolium tetrafluoroborate]
1180.34

---

Quick list: mass density per entry.
- test_settings: 303.15 K; 101.33 kPa; Liquid; Vibrating tube method
Note: unit kg/m3 is implicit; provide only the numeric part.

Worked cases, answers included:
molecule	value_units	obs_value
OCCO	kg/m3	1106.33
CCCCn1cc[n+](C)c1C.F[B-](F)(F)F [1-butyl-2,3-dimethylimidazolium tetrafluoroborate]	kg/m3	1189.92
CCCCCn1cc[n+](C)c1.F[B-](F)(F)F [1-methyl-3-pentyl-imidazolium tetrafluoroborate]	kg/m3	1173.35

Please find the next molecule below.
I have this molecule here, CCCCCn1cc[n+](C)c1.[Br-] [1-pentyl-3-methylimidazolium bromide] , and I need its recorded mass density.
1253.05

---

Quick list: speed of sound per entry.
- test_settings: 303.15 K; 101.33 kPa; Liquid; Sing-around technique in a fixed-path interferometer
Note: unit m/s is implicit; provide only the numeric part.

compound	speed of sound [m/s]
CCCCn1cc[n+](C)c1C.F[B-](F)(F)F [1-butyl-2,3-dimethylimidazolium tetrafluoroborate]	1628.7

I have this compound here, CCCCCn1cc[n+](C)c1.[Br-] [1-pentyl-3-methylimidazolium bromide] , and I need its recorded speed of sound.
1596.4

Moving on to CCCCCn1cc[n+](C)c1.F[B-](F)(F)F [1-methyl-3-pentyl-imidazolium tetrafluoroborate]
1528.2

Moving on to OCCO [1,2-ethanediol]
1642.2

---

Quick list: speed of sound per entry.
- test_settings: 313.15 K; 101.33 kPa; Liquid; Sing-around technique in a fixed-path interferometer
Note: unit m/s is implicit; provide only the numeric part.

Worked cases, answers included:
compound	speed of sound (m/s)
CCCCn1cc[n+](C)c1C.F[B-](F)(F)F [1-butyl-2,3-dimethylimidazolium tetrafluoroborate]	1605.1
CCCCCn1cc[n+](C)c1.[Br-] [1-pentyl-3-methylimidazolium bromide]	1563.7
CCCCCn1cc[n+](C)c1.F[B-](F)(F)F [1-methyl-3-pentyl-imidazolium tetrafluoroborate]	1504.6

Please find the next compound below.
I have this compound here, OCCO , and I need its recorded speed of sound.
1618.9

---

Quick list: speed of sound per entry.
- test_settings: 298.15 K; 101.33 kPa; Liquid; Sing-around technique in a fixed-path interferometer
Note: unit m/s is implicit; provide only the numeric part.

Worked cases, answers included:
compound	obs_value
CCCCn1cc[n+](C)c1C.F[B-](F)(F)F [1-butyl-2,3-dimethylimidazolium tetrafluoroborate]	1641.4
CCCCCn1cc[n+](C)c1.[Br-] [1-pentyl-3-methylimidazolium bromide]	1617.5
OCCO [1,2-ethanediol]	1653.9

Please find the next compound below.
I have this compound here, CCCCCn1cc[n+](C)c1.F[B-](F)(F)F [1-methyl-3-pentyl-imidazolium tetrafluoroborate] , and I need its recorded speed of sound.
1540.2

---

Quick list: speed of sound per entry.
- test_settings: 308.15 K; 101.33 kPa; Liquid; Sing-around technique in a fixed-path interferometer
± gives the expanded uncertainty stated by the source.
# number then unit; no other words

Worked cases, answers included:
compound	measured_quantity	obs_value
CCCCCn1cc[n+](C)c1.[Br-] [1-pentyl-3-methylimidazolium bromide]	speed of sound	1578.9 ± 2.9 m/s
OCCO	speed of sound	1630.6 ± 2.2 m/s
CCCCCn1cc[n+](C)c1.F[B-](F)(F)F [1-methyl-3-pentyl-imidazolium tetrafluoroborate]	speed of sound	1516.3 ± 2.9 m/s

Please find the next compound below.
I have this compound here, CCCCn1cc[n+](C)c1C.F[B-](F)(F)F [1-butyl-2,3-dimethylimidazolium tetrafluoroborate] , and I need its recorded speed of sound.
1616.9 ± 2.1 m/s

---

Quick list: mass density per entry.
- test_settings: 313.15 K; 101.33 kPa; Liquid; Vibrating tube method
± gives the expanded uncertainty stated by the source.
# number then unit; no other words

compound	mass density
OCCO [1,2-ethanediol]	1099.26 ± 0.16 kg/m3

I have this compound here, CCCCCn1cc[n+](C)c1.[Br-] [1-pentyl-3-methylimidazolium bromide] , and I need its recorded mass density.
1246.17 ± 1.4 kg/m3

Moving on to CCCCCn1cc[n+](C)c1.F[B-](F)(F)F [1-methyl-3-pentyl-imidazolium tetrafluoroborate]
1166.36 ± 1.2 kg/m3

Moving on to CCCCn1cc[n+](C)c1C.F[B-](F)(F)F [1-butyl-2,3-dimethylimidazolium tetrafluoroborate]
1183.17 ± 0.15 kg/m3

---

Quick list: speed of sound per entry.
- test_settings: 293.15 K; 101.33 kPa; Liquid; Sing-around technique in a fixed-path interferometer
Note: unit m/s is implicit; provide only the numeric part.

Worked cases, answers included:
compound	speed of sound / m/s
CCCCCn1cc[n+](C)c1.F[B-](F)(F)F [1-methyl-3-pentyl-imidazolium tetrafluoroborate]	1552.5
OCCO	1665.6
CCCCn1cc[n+](C)c1C.F[B-](F)(F)F [1-butyl-2,3-dimethylimidazolium tetrafluoroborate]	1654.9

Please find the next compound below.
I have this compound here, CCCCCn1cc[n+](C)c1.[Br-] [1-pentyl-3-methylimidazolium bromide] , and I need its recorded speed of sound.
1644.2

Data credit: the NIST ThermoML archive (doi:10.1016/j.fluid.2013.08.029)
